- Tgt: Polyadenylate-binding protein 1 (Homo sapiens)
- Assay Overview: PABP poly(A) RNA binding inhibitors, primary screen, biochemical, fluorescence polarization, uHTS (AID 2014);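 further: calls also rest on retests at 20 µM and on dose response follow-up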
- Test Context: at 35 µM
Out of some 290,000 compounds screened, about 3,000 (1%) were called active. How the calls were made is not given here. This excerpt belongs to a sample that is enriched for actives.
Output constraint: value belongs to active, inactive

Hey, what did the test say about `Cn1c2ccccc2c(=O)c2c(=O)n(Cc3ccco3)c(COc3ccccc3)nc21` ?
active

Hey, what did the test say about `COc1ccc(C(=O)CSc2nnc(COc3ccccc3)n2Cc2ccco2)cc1` ?
inactive

Hey, what did the test say about `O=C(N/N=C/c1ccccc1O)/C(=C/c1ccccc1)CCO` ?
inactive

Hey, what did the test say about `Cc1nc(N)nc(SCc2ccc([N+](=O)[O-])cc2)c1N` ?
inactive

Hey, what did the test say about `COc1ccc(N2CCN(C(=O)Cn3cnc4sc(C)c(S(=O)(=O)N5CCOCC5)c4c3=O)CC2)cc1` ?
inactive

Hey, what did the test say about `O=C(CSc1ncn[nH]1)N/N=C/c1ccc(F)cc1` ?
inactive

Hey, what did the test say about `Cn1ncc(Br)c1C(=O)NC1CCCC1` ?
inactive

Hey, what did the test say about `CN(C(=O)c1c(Cl)cnn1C)C12CC3CC(CC(C3)C1)C2` ?
active

Hey, what did the test say about COc1ccc(CNC(=O)C(Cc2ccccc2)n2cccc2)cc1 (centres undefined) ?
inactive

Hey, what did the test say about COc1ccccc1NC(=O)CSc1nnc(C)n1CC1CCCO1 (centres undefined) ?
inactive

Hey, what did the test say about CC(C)=N/N=C1/NC(=O)C(Cc2ccccc2)S1 (centres undefined) ?
inactive

Hey, what did the test say about `CCOC(=O)N1CCN(C(=O)COCc2cc(-c3ccc4c(c3)OCO4)on2)CC1` ?
inactive

Hey, what did the test say about CC(NC(=O)COc1cccnc1[N+](=O)[O-])c1ccc(Cl)cc1Cl (centres undefined) ?
inactive

Hey, what did the test say about CC(C)(C)C1C/C(=C/c2ccco2)C(=O)/C(=C/c2ccco2)C1 (centres undefined) ?
active

Hey, what did the test say about COc1ccc(NC(=O)C(CC(C)C)NC(=O)C2CCC(C)CC2)cc1 (centres undefined) ?
inactive

Hey, what did the test say about CCC1S/C(=N/N=C/c2ccco2)NC1=O (centres undefined) ?
inactive

Hey, what did the test say about `Cc1cc(NC(=O)c2ccc(F)cc2)ccc1NC(=O)c1ccco1` ?
inactive

Hey, what did the test say about `C=CCn1c(SCc2ccccc2)nc2c1c(=O)[nH]c(=O)n2C` ?
inactive

Hey, what did the test say about `Cc1ccc2c(cnn2C(=O)CCC(=O)NC2CCCC2)c1` ?
inactive

Hey, what did the test say about `Cc1cc(C(=O)NCCc2ccc(Cl)cc2)c(C)o1` ?
inactive

Hey, what did the test say about `Cc1cccc(NS(=O)(=O)c2cc(Cl)ccc2Cl)n1` ?
inactive

Hey, what did the test say about `O=C(COC(=O)CCC(=O)c1cccs1)NCc1ccco1` ?
inactive

Hey, what did the test say about `COc1ccc(N=C(C)c2sc3ccccc3c2O)cc1` ?
inactive

Hey, what did the test say about O=C(Nc1ccc(Br)cc1F)C1CC(=O)N(C2CCCCC2)C1 (centres undefined) ?
inactive

====

- Tgt: Polyadenylate-binding protein 1 (Homo sapiens)
- Assay Overview: PABP poly(A) RNA binding inhibitors, primary screen, biochemical, fluorescence polarization, uHTS (AID 2014);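 further: calls also rest on retests at 20 µM and on dose response follow-up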
- Test Context: at 35 µM
Among all 290,000 compounds or so, about 3,000 (1%) were called active. How the calls were made is not given here. Shown is part of a subset that was picked to be rich in actives.
Output constraint: value belongs to active, inactive

Hey, what did the test say about `COc1ccc(Cl)cc1NC(=O)CCS(=O)(=O)c1cc2c(cc1C)NC(=O)CO2` ?
inactive

Hey, what did the test say about O=C(OCC1O[C@@H](OC(=O)c2cc(O)c(O)c(O)c2)[C@@H](OC(=O)c2cc(O)c(O)c(O)c2)[C@@H](OC(=O)c2cc(O)c(O)c(O)c2)[C@@H]1OC(=O)c1cc(O)c(O)c(O)c1)c1cc(O)c(O)c(O)c1 (stereo not given in full) ?
active

Hey, what did the test say about CCOC(=O)C(C)Sc1nnc(CSc2nc3nc(C)cc(C)n3n2)o1 (stereo not given) ?
inactive

Hey, what did the test say about `O=C(CCS(=O)(=O)c1ccc(Br)cc1)NCCc1ccc(Cl)cc1` ?
inactive

Hey, what did the test say about `Cc1ccc(C(=O)NCC(=O)NCc2cc(=O)n(C)c(=O)n2C)cc1` ?
inactive

Hey, what did the test say about `Cc1ccc(C(=O)NC2CCN(C(=O)Nc3ccc(F)cc3)CC2)cc1` ?
inactive

Hey, what did the test say about `COc1cc([C@H](Cc2ccccc2)NC(C)=O)oc(=O)c1` ?
active

Hey, what did the test say about CCOC(=O)C(Cc1ccccc1)NC(=O)CCC(=O)c1ccc(OC)cc1 (stereo not given) ?
inactive

Hey, what did the test say about Cc1ccc(N2C(=O)C3C4C=CC(CC4)C3C2=O)cc1Cl (stereo not given) ?
inactive

Hey, what did the test say about `COC(=O)[C@H](Cc1ccccc1)NC(=O)Nc1ccc(OC)cc1` ?
inactive

====

- Tgt: Polyadenylate-binding protein 1 (Homo sapiens)
- Assay Overview: PABP poly(A) RNA binding inhibitors, primary screen, biochemical, fluorescence polarization, uHTS (AID 2014);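 further: calls also rest on retests at 20 µM and on dose response follow-up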
- Test Context: at 35 µM, stronger effect = higher value
About 3,000 (1%) of roughly 290,000 compounds were called active. Many of the other results were omitted from the sample, so actives are more common in it than they were.
Observable: inhibition

For record `C=CCNC(=O)CSc1nc2scc(-c3ccco3)c2c(=O)n1CC=C` the listed inhibition is 15.2% (inactive)

For record `CCOC(=O)/C=c1\s/c(=C\c2ccccc2OC)c(=O)n1CC(=O)N1CCOCC1` the listed inhibition is 7.9% (inactive)

For record CCOC(=O)c1c(C)[nH]c(C2=NNC(=NC(C)COC)SC2)c1C (stereo not given) the listed inhibition is 50.4% (active)

For record `COc1ccc(Cc2nnc(NC(=O)Cc3cccs3)s2)cc1` the listed inhibition is 72.4% (active)

For record COc1cc(C(=O)N2CCN(C3CCC(C)CC3)CC2)cc(OC)c1OC (stereo not given) the listed inhibition is 7.5% (inactive)

For record `CCC(=O)N1CCCc2ccccc21` the listed inhibition is 59.1% (active)

For record `Fc1cc(F)c2nc(N3CCOCC3)sc2c1` the listed inhibition is 6.9% (inactive)

For record `CCOC(=O)c1c(C)[nH]c2c1-c1ccccc1C(=O)C2=O` the listed inhibition is -3.9% (inactive)

For record `CCc1nnc(NC(=O)c2nc3nccc(C)n3n2)s1` the listed inhibition is -2.3% (inactive)

For record `O=C(NCc1cccc(C(F)(F)F)c1)c1cccc(S(=O)(=O)N2CCN(Cc3ccccc3)CC2)c1` the listed inhibition is -3.2% (inactive)

For record `COCCCNc1nc2c(-c3cccc(C)c3)nnn2c2ccc(Cl)cc12` the listed inhibition is 3.2% (inactive)

For record `Cc1ccc(C(=O)Nc2nnc(-c3cccs3)s2)cc1C` the listed inhibition is 4.7% (inactive)

For record `Cc1cc(C)n(Cc2cnc(N3CCOCC3)s2)n1` the listed inhibition is 55% (active)

For record Cc1cccc2[nH]c(CN(C)C(=O)C3CCC(=O)N(CCc4ccccc4)C3)nc12 (stereo not given) the listed inhibition is -4.2% (inactive)

For record `COc1cc(C(=O)Nn2c(CC(C)C)nc3ccccc3c2=O)cc(OC)c1OC` the listed inhibition is 1.2% (inactive)

For record `O=C(NCc1cccc(CNC(=O)Nc2cccc(O)c2)c1)Nc1cccc(O)c1` the listed inhibition is 3.3% (inactive)

For record Cc1ccc(C2SCC(=O)N2c2ccccc2)cc1 (stereo not given) the listed inhibition is -0.7% (inactive)

For record CCC1CCCCN1C(=O)CSc1nc2c(c(=O)n1C)SC(C)C2 (stereo not given) the listed inhibition is -9% (inactive)

For record COc1ccc(CC(NC(C)=O)C(=O)NC2CCN(C(=O)c3ccc(Cl)cc3)CC2)cc1 (stereo not given) the listed inhibition is 3.2% (inactive)

For record `COc1ccccc1-c1noc(CSc2nc(C)cc(=O)[nH]2)n1` the listed inhibition is 56.6% (active)

For record `CCCCOC(=O)c1[nH]c(C)c(C(=O)OC)c1C` the listed inhibition is -3.8% (inactive)

For record CC(=O)N1c2ccc(S(=O)(=O)NCCC(=O)N(C)C3CCCCC3)cc2CC1C (stereo not given) the listed inhibition is 3.5% (inactive)

For record `COc1cc(NC(=O)CSc2ccc(-c3cccnc3)nn2)cc(OC)c1` the listed inhibition is 15.1% (inactive)

For record `CCSc1nnc(NC(=O)c2ccc(C)cc2)s1` the listed inhibition is -4.4% (inactive)

For record `O=C(/C=C/c1ccco1)NC(=S)N1CCCCC1` the listed inhibition is 1.1% (inactive)

For record `CCOc1ccccc1/C=c1\sc2nc(-c3ccco3)nn2c1=O` the listed inhibition is 53% (active)

For record `COc1ccc(Cc2nnc(NC(=O)c3ccc(OC)cc3OC)s2)cc1` the listed inhibition is -6% (inactive)

For record `COc1ccc([N+](=O)[O-])cc1N(CC(=O)Nc1ccccc1C(=O)N1CCOCC1)S(C)(=O)=O` the listed inhibition is -5.6% (inactive)

For record `CS(=O)(=O)c1ccc2c(c1)SC1=NC(=O)/C(=C/c3ccco3)C(=N)N12` the listed inhibition is 91% (active)

For record CC1(C(=O)N/N=C/c2cc3c(cc2Br)OCO3)CC1(Br)Br (stereo not given) the listed inhibition is -5.1% (inactive)

For record `O=C(CSCc1ccccc1)N1CCc2ccccc21` the listed inhibition is 2.2% (inactive)

For record `CCCCCCn1cc(C(=O)O)c(=O)c2cc(F)c(N3CCCCC3)cc21` the listed inhibition is -0.7% (inactive)

For record `COc1ccc(C(=O)Nc2ccnn2C2CCN(Cc3ccncc3)CC2)cc1` the listed inhibition is -4.2% (inactive)

For record O=C(CCN1CCCO1)N1CCCC(N2CCN(c3cccc(C(F)(F)F)c3)CC2)C1 (stereo not given) the listed inhibition is -17.5% (inactive)

For record `Cc1cc(=O)[nH]c(SCc2cccc(F)c2)n1` the listed inhibition is -3.3% (inactive)

For record CC1CCCCN1C(=O)CCS(=O)(=O)Cc1ccccc1 (stereo not given) the listed inhibition is 9.6% (inactive)

For record CNC(=S)N1CCC(NC(=O)C(Cc2ccc(F)cc2)NC(C)=O)CC1 (stereo not given) the listed inhibition is 63.2% (active)

For record `Cc1ccc(C(=O)Oc2coc(CSc3nnc(NC(=O)c4cccs4)s3)cc2=O)cc1C` the listed inhibition is -2.3% (active)

For record `O=C(CCC1CCN(C(=O)c2cccc(Cl)c2F)CC1)Nc1ccccc1` the listed inhibition is -10.6% (inactive)

For record `O=Cc1cn(-c2ccccc2)nc1-c1ccccn1` the listed inhibition is -6.6% (inactive)

For record CC(C)c1ccccc1OCC(O)CN(CC(O)COc1cccc2ccccc12)C(C)C (stereo not given) the listed inhibition is 5.7% (inactive)

For record `Cc1cccc(Nc2nc(-c3ccccc3)cs2)n1` the listed inhibition is 3.3% (inactive)

For record `Cc1cc(/C=C2/C(=N)N3C(=NC2=O)SN=C3S(C)(=O)=O)c(C)n1-c1ccccc1` the listed inhibition is -5.5% (inactive)

For record `Cc1ccc2c(c1)N(CC(=O)N1CCOCC1)C(=O)CO2` the listed inhibition is 2.5% (inactive)

For record `CCOCc1nnc(NC(=O)CCS(=O)(=O)Cc2ccccc2)s1` the listed inhibition is -0.4% (inactive)

Reference source: PubChem BioAssay AID2014
